- study.target: Luciferin 4-monooxygenase (Photinus pyralis) (UniProt P08659)
- Sequence (P08659 whole entry, looked up): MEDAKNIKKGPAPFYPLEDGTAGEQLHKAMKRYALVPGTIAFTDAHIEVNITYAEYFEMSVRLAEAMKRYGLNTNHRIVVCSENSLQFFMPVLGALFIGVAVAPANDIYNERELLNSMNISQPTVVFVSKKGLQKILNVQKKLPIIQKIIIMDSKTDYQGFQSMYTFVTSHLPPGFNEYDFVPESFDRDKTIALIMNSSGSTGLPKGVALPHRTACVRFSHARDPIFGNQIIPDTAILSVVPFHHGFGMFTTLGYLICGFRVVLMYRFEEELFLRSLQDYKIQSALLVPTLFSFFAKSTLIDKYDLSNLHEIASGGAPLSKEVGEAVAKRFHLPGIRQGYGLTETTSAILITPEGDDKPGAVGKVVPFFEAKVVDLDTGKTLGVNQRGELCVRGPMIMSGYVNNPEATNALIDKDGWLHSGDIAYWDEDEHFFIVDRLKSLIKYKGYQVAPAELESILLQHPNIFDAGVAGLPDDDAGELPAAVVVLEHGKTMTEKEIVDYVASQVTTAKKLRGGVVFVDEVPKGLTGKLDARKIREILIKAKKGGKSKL
- test.details: qHTS Assay for Inhibitors of Firefly Luciferase; further: nearly all actives have a fitted effect of over 40% in size
- conditions.used: purified firefly luciferase, luminescence, 8 min; series mostly up to 57.1 µM
Screen size: about 72,000 compounds; about 1,600 (2.2%) were called active. The call rests on the fitted dose curve; in most records, active means well fitted inhibition curve with a large enough effect; inconclusive means small, poorly fitted or top-dose-only effect; inactive means flat fitted curve, though single readings scatter. This is one part of a sample in which actives are shown more often than they occur.
Give your call using only these classes: T for active, F for inactive

For orientation, consider the following solved cases.
• O=C(Nc1ccccc1C(F)(F)F)c1cc(-c2ccc(O)cc2)on1 = F
• C=CCn1c(SCn2nnc3ccccc3c2=O)nnc1-c1ccc(Cl)cc1 = F

Qu. Please state the recorded outcome for this compound: `CCCCc1cc(=O)oc2cc(C)cc(OCc3nn[nH]n3)c12`
Ans. F

Qu. Per the assay record, what outcome was assigned to `Cc1ccnc(N2CCC(C(=O)NC3CCCCCC3)CC2)n1` ?
Ans. F

###

- study.target: Luciferin 4-monooxygenase (Photinus pyralis) (UniProt P08659)
- test.details: qHTS Assay for Inhibitors of Firefly Luciferase; further: nearly all actives have a fitted effect of over 40% in size
- conditions.used: purified firefly luciferase, luminescence, 8 min; series mostly up to 57.1 µM
The campaign covered roughly 72,000 compounds. About 1,600 (2.2%) were called active. Calls follow the shape of the dose curve; as a rule, active = well fitted inhibition curve with a large enough effect; inconclusive = small, poorly fitted or top-dose-only effect; inactive = flat fitted curve, though single readings scatter. This excerpt belongs to a sample that is enriched for actives.
Bench note: report the call from 1 (active), 0 (inactive)

The examples below pair each entry with its known result.
* CCOc1cc(C)c(Cl)cc1S(=O)(=O)n1nnc2ccccc21 | 0
* CN(C(=O)c1ccccn1)c1nnc(-c2ccccn2)s1 | 1
* O=C(c1ccc(F)cc1)C1CCN(CCCCc2ccccc2)CC1 | 0
* CCN1C(=O)/C(=C\N2CCN(c3ccccc3)CC2)SC1=S | 0
* COc1ccc(C2CC(c3ccccc3)Nc3ncnn32)cc1 (stereo unspecified) | 0

Qu. Look up the recorded call for `Cc1nnc(SCc2ccc(C(=O)c3ccc(Cl)cc3)o2)n1-c1ccccc1` in this test.
Ans. 1

Qu. I would be grateful if you could indicate the recorded call for `COc1ccc2[nH]c3c(=O)n(Cc4ccco4)cnc3c2c1` .
Ans. 0

Qu. Which outcome was entered for the molecule CN1CCN(S(=O)(=O)c2ccc(NC(=O)C3CCCO3)cc2)CC1 (stereo unspecified) in this test?
Ans. 0

Qu. Could you check what this test reported for `CN(C(=O)c1ccno1)c1nnc(-c2cccnc2)s1` ?
Ans. 0

Qu. Tell me the recorded outcome of this test for `CN(C(=O)COc1ccccc1)c1nnc(-c2ccncc2)s1` .
Ans. 0

Qu. What was the test verdict on `Cc1nnc(SCC(=O)N2CCc3ccccc32)n1-c1ccccc1` ?
Ans. 0

###

- study.target: Luciferin 4-monooxygenase (Photinus pyralis) (UniProt P08659)
- test.details: qHTS Assay for Inhibitors of Firefly Luciferase; further: nearly all actives have a fitted effect of over 40% in size
- conditions.used: purified firefly luciferase, luminescence, 8 min; series mostly up to 57.1 µM
Screen size: about 72,000 compounds; about 1,600 (2.2%) were called active. The call rests on the fitted dose curve; in most records, active means well fitted inhibition curve with a large enough effect; inconclusive means small, poorly fitted or top-dose-only effect; inactive means flat fitted curve, though single readings scatter. The list comes from a sample in which actives are over-represented; it also holds close analogues and randomly drawn compounds.
Answer with one of the outcomes given here: active, inactive

- Cc1cc(C)c2c(n1)nn1c(N3CCOCC3)cc(C)nc21: inactive

Let us examine a further case.
Qu. I'd appreciate the recorded outcome for `CN(c1ccc(C(=O)NCCC2=CCCCC2)cc1)S(C)(=O)=O` from this test.
Ans. inactive

###

- study.target: Luciferin 4-monooxygenase (Photinus pyralis)
- test.details: qHTS Assay for Inhibitors of Firefly Luciferase; further: nearly all actives have a fitted effect of over 40% in size
- conditions.used: purified firefly luciferase, luminescence, 8 min; series mostly up to 57.1 µM
In all, about 72,000 compounds went through this assay and about 1,600 (2.2%) were called active. Calls come from the whole dose curve; as a rule, active = well fitted inhibition curve with a large enough effect; inconclusive = small, poorly fitted or top-dose-only effect; inactive = flat fitted curve, though single readings scatter. This excerpt belongs to a sample that is enriched for actives.
Form entry, call: pick from active, inactive

Below are worked cases with known answers.
* Cc1ccc(NC(=O)c2cc(-c3ccc(C)o3)nc3ccccc23)nc1 | active
* COc1ccc(OC)c(N=Cc2c(O)[nH]c3ccccc23)c1 | inactive
* Cc1ccc(-c2noc(CCC(=O)Nc3ccccc3N3CCN(C)CC3)n2)cc1 | inactive
* COc1ccc(N=Cc2c(O)[nH]c3ccccc23)cc1OC | active

API: the following record is the query input.
Qu. Test call for this compound, please: CCOC(=O)C1=C(C)NC(=O)N(C(C)=O)C1c1ccc(Cl)cc1 (stereo not given)
Ans. inactive

All values here come from PubChem BioAssay AID411.
